Measured binding (fold over iso) of individual entries
Target: T1, human LILRB2 expressed on cells (human, UniProt Q8N423 22-597)
T1 construct: CHO-s cells over-expressing full-length human LILRB2, or primary human macrophages and dendritic cells; also called hLILRB2-CHO-s; hLILRB2+ CHO-s
T1 sequence (Q8N423 other isoform, or with tags, fused parts or gaps limits assumed): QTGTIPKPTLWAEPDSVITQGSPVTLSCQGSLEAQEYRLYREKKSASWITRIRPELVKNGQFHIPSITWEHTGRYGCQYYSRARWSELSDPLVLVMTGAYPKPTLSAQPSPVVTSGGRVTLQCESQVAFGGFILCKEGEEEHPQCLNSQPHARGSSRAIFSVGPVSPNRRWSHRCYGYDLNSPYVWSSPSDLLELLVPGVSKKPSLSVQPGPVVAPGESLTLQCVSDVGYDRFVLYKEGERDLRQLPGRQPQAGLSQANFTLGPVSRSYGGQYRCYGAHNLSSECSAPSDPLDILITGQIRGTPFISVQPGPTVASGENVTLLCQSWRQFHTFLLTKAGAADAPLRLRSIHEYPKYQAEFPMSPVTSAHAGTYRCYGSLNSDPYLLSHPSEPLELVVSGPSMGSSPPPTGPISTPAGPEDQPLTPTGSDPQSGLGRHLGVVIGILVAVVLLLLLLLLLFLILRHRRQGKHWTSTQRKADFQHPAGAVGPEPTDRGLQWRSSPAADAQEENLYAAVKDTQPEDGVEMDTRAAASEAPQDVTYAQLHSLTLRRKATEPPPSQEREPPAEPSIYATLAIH
Assay: flow cytometry, LILRB2 CHOs
Hi! Could you send only the number? It should be in fold over iso, unit omitted.

Reference set (4 entries):
binder | binding (fold over iso)
J-03 (antibody, human IgG4 S228P, kappa, V domains shown, Human IgG4 chimera of murine origin) VH: QVQLQQSGAELVRPGASVTLSCKASGYKFTDYEMHWVKQTPVHGLEWIGAIDPETNGTAYNKKFKGKAILTADKSSSTAYMELRSLTSEDSAVYYCTRGDYDFSAWFAYWGQGTLVTVSA VL: DIVLTQSPASLAVSLGQRATISCRASESVDNYDISFMHWYQQKPGQPPKLLIYRASNLESGIPARFSGSGSRTDFTLTINPVETDDVATYYCQQSNKDPRTFGGGTKLEIKR | 30.1
J-19 (antibody, human IgG4 S228P, kappa, V domains shown, Human IgG4 chimera from a rat immunization; also called J-19.h) VH: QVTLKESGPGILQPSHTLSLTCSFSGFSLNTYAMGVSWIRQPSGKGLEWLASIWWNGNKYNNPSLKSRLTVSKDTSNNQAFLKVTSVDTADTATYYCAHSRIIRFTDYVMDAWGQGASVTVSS VL: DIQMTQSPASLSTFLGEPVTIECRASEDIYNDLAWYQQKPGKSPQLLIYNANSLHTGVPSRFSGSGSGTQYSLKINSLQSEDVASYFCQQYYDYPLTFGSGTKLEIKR | 3.78
J-11 (antibody, human IgG4 S228P, kappa, V domains shown, Human IgG4 chimera of murine origin; also called J-11.h) VH: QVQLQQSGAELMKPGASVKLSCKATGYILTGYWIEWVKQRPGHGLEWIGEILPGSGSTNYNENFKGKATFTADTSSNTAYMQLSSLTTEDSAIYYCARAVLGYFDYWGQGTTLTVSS VL: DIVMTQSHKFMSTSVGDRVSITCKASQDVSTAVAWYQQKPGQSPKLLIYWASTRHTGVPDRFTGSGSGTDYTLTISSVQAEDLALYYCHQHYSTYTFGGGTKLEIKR | 3.49
J-04 (antibody, human IgG4 S228P, kappa, V domains shown, Human IgG4 chimera of murine origin) VH: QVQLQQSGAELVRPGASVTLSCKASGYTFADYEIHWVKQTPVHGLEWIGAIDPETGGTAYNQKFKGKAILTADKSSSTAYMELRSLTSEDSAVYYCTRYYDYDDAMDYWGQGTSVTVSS VL: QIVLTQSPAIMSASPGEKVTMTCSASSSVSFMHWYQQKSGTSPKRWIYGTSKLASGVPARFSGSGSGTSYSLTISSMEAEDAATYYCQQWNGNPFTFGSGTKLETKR | 33.8

Proceed to the following item.
Exam item: What value of binding (fold over iso) has been reported for the following binder? J-17 (antibody, human IgG4 S228P, kappa, V domains shown, Human IgG4 chimera of murine origin; also called J-17.h) VH: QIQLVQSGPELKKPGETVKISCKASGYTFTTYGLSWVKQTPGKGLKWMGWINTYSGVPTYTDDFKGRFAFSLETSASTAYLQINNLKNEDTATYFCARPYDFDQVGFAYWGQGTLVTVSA VL: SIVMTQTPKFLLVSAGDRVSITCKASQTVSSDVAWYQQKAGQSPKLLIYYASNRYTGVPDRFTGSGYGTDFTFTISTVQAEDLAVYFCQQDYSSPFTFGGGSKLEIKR
Marked response: 3.68
